System: Saccharomyces cerevisiae
Assay: protein stability index of tFT-peptide fusion (C-terminal peptide) (PSI (0-1 scale)); higher = more stable (slower turnover);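 further: PSI is a weighted mean of sequencing reads over stability bins, variants kept only with over 10 reads, mCherry proximal and sfGFP distal, peptide attached via GGGS linker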
Conditions: genetic background: wild type; temperature: 30 C
Below, each entry is listed alongside its reported protein stability index.

seq_text	protein stability index
VIMNPGNDFLQK	0.702
GQEAGRERNNWQ	0.694
PFPLPPLHSSHR	0.734
PLHMWFSLLKPS	0.716

-- ask GET /values?readout=protein stability index&item= `NLITKWTCMRLF`
-- reply 0.511

-- ask GET /values?readout=protein stability index&item= `GGGVPGGLGREG`
-- reply 0.677

###

Test system: Saccharomyces cerevisiae
Experiment: protein stability index of tFT-peptide fusion (C-terminal peptide) (PSI (0-1 scale)); higher = more stable (slower turnover)
Settings: genetic background: das1 deletion; temperature: 30 C
measurement_label: protein stability index
# output: bare number, no unit

As a guide, the following entries are already answered.
seq_text	target_of_assay	protein stability index
CFYSRTIILEHC	Saccharomyces cerevisiae	0.464
GSVLWISCLIFC	Saccharomyces cerevisiae	0.189
FIFCLSCGVWGG	Saccharomyces cerevisiae	0.478
GKVSSFVLFHIS	Saccharomyces cerevisiae	0.622
PYLSAPLVATLS	Saccharomyces cerevisiae	0.274

-- ask GET /values?readout=protein stability index&item= `LPSLRPPPCIRA`
-- reply 0.36

-- ask GET /values?readout=protein stability index&item= `VCAFCLFFVPLP`
-- reply 0.425

-- ask GET /values?readout=protein stability index&item= `RFHFAAPPHRPS`
-- reply 0.679

-- ask GET /values?readout=protein stability index&item= `IVTSFVSPVYIC`
-- reply 0.456

-- ask GET /values?readout=protein stability index&item= `CLRFVFWFVCFV`
-- reply 0.254

-- ask GET /values?readout=protein stability index&item= `FLFLFLFPFSLI`
-- reply 0.476

-- ask GET /values?readout=protein stability index&item= `WCLLGVPVRVVV`
-- reply 0.307

###

Test system: Saccharomyces cerevisiae
Experiment: protein stability index of tFT-peptide fusion (C-terminal peptide) (PSI (0-1 scale)); higher = more stable (slower turnover)
Conditions: genetic background: wild type; temperature: 30 C
Please use the following protein stability index ranges when assigning a class: I: < 0.6; II: ≥ 0.6 and < 0.7; III: ≥ 0.7

Consider the worked cases shown below.
seq_text	category_label
VCRVGGVMAGDT	II
PRLPPPPTPPLP	II
IRIKLTYYKSYL	II
PGGLSCPSPPTI	II
LFPVTAIACRPS	III
GGVWVLGVAVVW	I
DRVFLVDMGVMW	II
PTPLPHTRATPT	III
PLRALLPTRCNL	III
FFALFLPLACFC	I

-- ask Note: place this sequence into its band. Item: `PIALPSPSSPIF`
-- reply II

-- ask Note: place this sequence into its band. Item: `RIKKKKNKARDI`
-- reply III

-- ask Note: place this sequence into its band. Item: `SPGGALVFFVLV`
-- reply I

-- ask Note: place this sequence into its band. Item: `KGRFTKTKLRVH`
-- reply I

-- ask Note: place this sequence into its band. Item: `RIRRVMHLYTNN`
-- reply I

-- ask Note: place this sequence into its band. Item: `RGGGAGAVQYRS`
-- reply II

###

Test system: Saccharomyces cerevisiae
Experiment: protein stability index of tFT-peptide fusion (C-terminal peptide) (PSI (0-1 scale)); higher = more stable (slower turnover)
Settings: genetic background: wild type; temperature: 37 C
Criterion: protein stability index meeting or surpassing 0.4. Met: class 1. Not met: class 0.

Consider the worked cases shown below.
seq_text	category_label
YGAGDLTKYFIV	class 0
QYRLMQKKIVNI	class 0
FLAFLEPRVCCA	class 0

-- ask Does protein stability index meet or surpass 0.4 for `VVRVSFSFCLSC` ?
-- reply class 1

-- ask Does protein stability index meet or surpass 0.4 for `SYWNSSPKCGNW` ?
-- reply class 1

-- ask Does protein stability index meet or surpass 0.4 for `SLVIRLNIRLIL` ?
-- reply class 0

-- ask Does protein stability index meet or surpass 0.4 for `RLFYRLSFVYFL` ?
-- reply class 0

-- ask Does protein stability index meet or surpass 0.4 for `GFFFYFVLFGLS` ?
-- reply class 1

-- ask Does protein stability index meet or surpass 0.4 for `KLKLWSIIKNNA` ?
-- reply class 1

-- ask Does protein stability index meet or surpass 0.4 for `PTFSPSLPPPRS` ?
-- reply class 1

-- ask Does protein stability index meet or surpass 0.4 for `VVVWLFRIKSNV` ?
-- reply class 1

Cited source for all entries: the supplement of paper PMC10724198
